EC50: recorded values
Tested on: recombinant NL-RLuc virus (HIV NL4-3 with Renilla Luciferase) in MT-2 cells
Assay: Inhibition of HIV replication (NL-RLuc virus in MT-2 cells, luciferase readout)
Type: cell-based
Conditions: MT2, 120 h, read-out: EC50 μM
Expressed in µM, but write only the number.

Sample records with EC50:
[
  {
    "compound": "Cc1nc(C)c([C@H](OC(C)(C)C)C(=O)O)c(N2CCC(C)(C)CC2)c1-c1ccc(OCC2(c3ccc(F)cc3)CC2)cc1 [Example 11]",
    "measurement label": "EC50",
    "scale unit": "µM",
    "observed measurement": 0.003
  },
  {
    "compound": "Cc1nc(C)c([C@H](OC(C)(C)C)C(=O)O)c(N2CCC(C)(C)CC2)c1-c1ccc(OCCN2CCN(C)CC2)cc1 [Example 1]",
    "measurement label": "EC50",
    "scale unit": "µM",
    "observed measurement": 0.117
  }
]

Output measured EC50 for this item: Cc1nc(C)c([C@H](OC(C)(C)C)C(=O)O)c(N2CCC(C)(C)CC2)c1-c1ccc(OC2CCCC2c2ccc(F)cc2)cc1 (stereo partly drawn) [Example 17] 0.012

* * *

EC50: recorded values
Test system: recombinant NL-RLuc virus (HIV NL4-3 with Renilla Luciferase) in MT-2 cells
Assay: Inhibition of HIV replication (NL-RLuc virus in MT-2 cells, luciferase readout)
Assay type: cell-based
Settings: MT2, 120 h, read-out: EC50 μM
Expressed in µM, but write only the number.

Sample records with EC50:
[
  {
    "smi": "Cc1nc(C)c([C@H](OC(C)(C)C)C(=O)O)c(N2CCC(C)(C)CC2)c1-c1ccc(OCCN2CCSCC2)cc1",
    "observed measurement": 0.003
  },
  {
    "smi": "Cc1nc(C)c([C@H](OC(C)(C)C)C(=O)O)c(N2CCC(C)(C)CC2)c1-c1ccc(OCCN2CCOCC2)cc1",
    "observed measurement": 0.021
  }
]

Output measured EC50 for this item: Cc1nc(C)c([C@H](OC(C)(C)C)C(=O)O)c(N2CCC(C)(C)CC2)c1-c1ccc(OCCC2CCCCC2)cc1 0.034
